Tested on: MYC T-ALL 4188 cells
Assay: Chemotherapeutic drug treatment of MYC T-ALL cells, surface protein levels by flow cytometry
Format: cell-based, mouse
Settings: MYC T-ALL 4188 cells; 10 μM; flow cytometry
READOUT_LABEL: CD3 expression

[[record]]
compound = "N.N.[Cl][Pt][Cl] [cisplatin]"
readout_label = "CD3 expression"
result = "no effect"

[[record]]
compound = "CC[C@]1(O)C[C@H]2CN(CCc3c([nH]c4ccccc34)[C@@](C(=O)OC)(c3cc4c(cc3OC)N(C=O)[C@H]3[C@@](O)(C(=O)OC)[C@H](OC(C)=O)[C@]5(CC)C=CCN6CC[C@]43[C@@H]65)C2)C1"
readout_label = "CD3 expression"
result = "no effect"

[[record]]
compound = "C[C@]12C=CC(=O)C=C1CC[C@@H]1[C@@H]2C(=O)C[C@@]2(C)[C@H]1CC[C@]2(O)C(=O)CO"
readout_label = "CD3 expression"
result = "no effect"

[[record]]
compound = "O=P1(N(CCCl)CCCl)NCCCO1 (stereo not shown)"
readout_label = "CD3 expression"
result = "no effect"

